Kindly state GI90 for each of the entries shown.
Tested on: A549
Assay: Cytotoxicity against human A549 cells after 48 hrs by MTT assay
Assay type: cell-based
Conditions: a549, 48 h

Per the reported A549 data, O=C(/C=C\c1cccc(Cl)c1)N1N=C(c2ccncc2)OC1c1c[nH]c2ccccc12 (centres undefined) has GI90 of > 30 µg/mL

Sample O=C(/C=C\c1ccc([N+](=O)[O-])cc1)N1N=C(c2ccncc2)OC1c1c[nH]c2ccccc12 (centres undefined) , system: A549. Its GI90 is > 30 µg/mL

Short answer on A549 for O=C(/C=C\c1ccccc1Cl)N1N=C(c2ccncc2)OC1c1c[nH]c2ccccc12 (centres undefined) , GI90: > 30 µg/mL

With A549 as the test system, O=C(/C=C\c1cccc(O)c1)N1N=C(c2ccncc2)OC1c1c[nH]c2ccccc12 (centres undefined) showed GI90 of > 30 µg/mL

Fill in: A549 GI90 for O=C(/C=C\c1cccc(Br)c1)N1N=C(c2ccncc2)OC1c1c[nH]c2ccccc12 (centres undefined) = > 30 µg/mL

A549 assay, compound O=C(/C=C\c1ccccc1F)N1N=C(c2ccncc2)OC1c1c[nH]c2ccccc12 (centres undefined) , recorded GI90 = > 30 µg/mL

Let me check: O=C(/C=C\c1ccc(F)cc1)N1N=C(c2ccncc2)OC1c1c[nH]c2ccccc12 (centres undefined) , system A549, measured GI90 is > 30 µg/mL

The reported A549 GI90 of O=C(/C=C\c1ccc(O)cc1)N1N=C(c2ccncc2)OC1c1c[nH]c2ccccc12 (centres undefined) is > 30 µg/mL

Record O=C(/C=C\c1cccc([N+](=O)[O-])c1)N1N=C(c2ccncc2)OC1c1c[nH]c2ccccc12 (centres undefined) / A549, GI90 recorded as > 30 µg/mL

====

Tested on: Pseudomonas fluorescens
Test: Antibacterial activity against Pseudomonas fluorescens NCIM 2036 after 8 hrs
Format: functional, organism-based
Details: NCIM 2036, 8 h
testReadout: IC50 (µg/mL)
Numbers only; they are read as µg/mL.

// O=C(/C=C\c1ccc([N+](=O)[O-])cc1)N1N=C(c2ccncc2)OC1c1c[nH]c2ccccc12 (stereo not drawn) : IC50 value = 11.9

Lab note: measured IC50 of O=C(/C=C\c1ccccc1O)N1N=C(c2ccncc2)OC1c1c[nH]c2ccccc12 (stereo not drawn) was 22.5

IC50 measured on NC[C@H]1O[C@H](O[C@H]2[C@H](O)[C@@H](O[C@H]3O[C@H](CO)[C@@H](O)[C@H](N)[C@H]3O)[C@H](N)C[C@@H]2N)[C@H](O)[C@@H](O)[C@@H]1O [KANAMYCIN] = 0.014

Recorded IC50 (compound O=C(/C=C\c1cccc([N+](=O)[O-])c1)N1N=C(c2ccncc2)OC1c1c[nH]c2ccccc12 (stereo not drawn) ): 20.9

Lab book: IC50 of O=C(/C=C\c1ccc(F)cc1)N1N=C(c2ccncc2)OC1c1c[nH]c2ccccc12 (stereo not drawn) noted as 7.33

Measured IC50 of O=C(/C=C/c1c(Cl)cccc1Cl)N1N=C(c2ccncc2)OC1c1c[nH]c2ccccc12 (stereo not drawn) : 15.6

IC50 reading for O=C(/C=C\c1cccc(O)c1)N1N=C(c2ccncc2)OC1c1c[nH]c2ccccc12 (stereo not drawn) : 17.4

Noted for O=C(/C=C\c1ccccc1F)N1N=C(c2ccncc2)OC1c1c[nH]c2ccccc12 (stereo not drawn) : its IC50 reads 26.4

Lab note: O=C(/C=C\c1ccccc1)N1N=C(c2ccncc2)OC1c1c[nH]c2ccccc12 (stereo not drawn) gave IC50 of 11.1

O=C(/C=C\c1cccc(Cl)c1)N1N=C(c2ccncc2)OC1c1c[nH]c2ccccc12 (stereo not drawn) has a reported IC50 of 12.1

For record O=C(/C=C\c1ccccc1Cl)N1N=C(c2ccncc2)OC1c1c[nH]c2ccccc12 (stereo not drawn) the listed IC50 is 2.53

Consider O=C(/C=C\c1ccc(O)cc1)N1N=C(c2ccncc2)OC1c1c[nH]c2ccccc12 (stereo not drawn) . Its measured IC50 is 45

Value of measured IC50 for the entry O=C(/C=C\c1cccc(Cl)c1Cl)N1N=C(c2ccncc2)OC1c1c[nH]c2ccccc12 (stereo not drawn) : 6.79

Kindly note the recorded IC50 for COc1ccc(/C=C\C(=O)N2N=C(c3ccncc3)OC2c2c[nH]c3ccccc23)cc1 (stereo not drawn) , which is 15.7

Form field IC50, entry O=C(/C=C\c1cccc(Br)c1)N1N=C(c2ccncc2)OC1c1c[nH]c2ccccc12 (stereo not drawn) : 3.19
